- experimental protocol: main transition temperature (TM) of phosphatidylcholines
- Assay type: physicochemical
- condition set: phosphatidylcholine; acyl chains on positions 1 and 2 of glycero-3-phosphocholine or 1 and 3 of glycero-2-phosphocholine
- Protocol: The abovementioned preferred composition of the liposome according to the invention can be tailor-made for other temperature ranges by choice of components with the main transition temperature suitable in each case. In table 1, the main transition temperatures (TM) of phosphatidylcholines whose main transition temperatures lie in the range from 0 to 80° C. are indicated.
observed property: TM (main transition temperature) (°C)

[I] CCCCCCCCCCCCCCCCCC(=O)OCC(COP(=O)([O-])OCC[N+](C)(C)C)OC(=O)CCCCCCCCCCCCC (stereo not drawn)
[II] CCCCCCCC/C=C\CCCCCCCC(=O)OC(COC(=O)CCCCCCCCCCCCCCCCCCCCC)COP(=O)([O-])OCC[N+](C)(C)C (stereo not drawn)
From the items above, decide which of I and II has the lower TM (main transition temperature) reading. Give the label of your selection. II

[A] CCCCCCCCCCCCCCCCCCCCCCCC(=O)OCC(COP(=O)([O-])OCC[N+](C)(C)C)OC(=O)CCCCCCCCCCCCCCCCCCCCCCC (stereo not drawn)
[B] CCCCCCCCCCCCCCCC(=O)OCC(COP(=O)([O-])OCC[N+](C)(C)C)OC(=O)CCCCCCCCCCCCC (stereo not drawn)
Given the listed records, identify the one among A and B with higher TM (main transition temperature). Pick one and reply with its label. A
(A: 80 °C, B: 27 °C)

[A] CCCCCCCC/C=C\CCCCCCCC(=O)OC(COC(=O)CCCCCCCCCCCCCCCCC)COP(=O)([O-])OCC[N+](C)(C)C (stereo not drawn)
[B] CCCCCCCCCCCCCCCCCC(=O)OCC(COP(=O)([O-])OCC[N+](C)(C)C)OC(=O)CCCCCCCCCCC (stereo not drawn)
Lower value of TM (main transition temperature) belongs to which: A or B ? // caller expects the label of the chosen entry A

====

- experimental protocol: main transition temperature (TM) of phosphatidylcholines
- Assay type: physicochemical
- condition set: phosphatidylcholine; acyl chains on positions 1 and 2 of glycero-3-phosphocholine or 1 and 3 of glycero-2-phosphocholine
observed property: TM (main transition temperature) (°C)

- molecule: "CCCCCCCCCCCCCC(=O)OCC(COP(=O)([O-])OCC[N+](C)(C)C)OC(=O)CCCCCCCCCCCCC (stereo not drawn)"
  unit name: "°C"
  readout value: 23

[a] CCCCCCCCCCCCCCCCCC(=O)OC[C@H](COP(=O)([O-])OCC[N+](C)(C)C)OC(=O)CCCCCCCCCCCCCCCCC
[b] CCCCCCCC/C=C\CCCCCCCC(=O)OC(COC(=O)CCCCCCCCCCCCCCC)COP(=O)([O-])OCC[N+](C)(C)C (stereo not drawn)
Which has the higher TM (main transition temperature), a or b ? When you have decided, please share the label of that item. a

[P] CCCCCCCCCCCCCCCC(=O)OCC(COP(=O)([O-])OCC[N+](C)(C)C)OC(=O)CCCCCCCCCCC (stereo not drawn)
[Q] CCCCCCCCCCCCCCCC(=O)OC[C@H](COP(=O)([O-])OCC[N+](C)(C)C)OC(=O)CCCCCCCCCCCCCCC
[R] CCCCCCCCCCCCCCCCCCCC(=O)OCC(COP(=O)([O-])OCC[N+](C)(C)C)OC(=O)CCCCCCCCCCCCCCCCCCC (stereo not drawn)
Sort these molecules on TM (main transition temperature) so the largest reading comes first. Dear reader, please state the labels in the requested order. R, Q, P
(R: 66 °C, Q: 41 °C, P: 11 °C)

Every entry's value here was drawn from patent US9980907B2.
